Provenance of the data: paper PMC8379669

biological target: GluN2B containing NMDAR (GluN1/GluN2B) in HEK-293 cells (Homo sapiens, UniProt Q05586+Q13224); test: Cell-based NMDAR activity assay
Sequence (Q13224 27-1484, species assumed, other chains not shown): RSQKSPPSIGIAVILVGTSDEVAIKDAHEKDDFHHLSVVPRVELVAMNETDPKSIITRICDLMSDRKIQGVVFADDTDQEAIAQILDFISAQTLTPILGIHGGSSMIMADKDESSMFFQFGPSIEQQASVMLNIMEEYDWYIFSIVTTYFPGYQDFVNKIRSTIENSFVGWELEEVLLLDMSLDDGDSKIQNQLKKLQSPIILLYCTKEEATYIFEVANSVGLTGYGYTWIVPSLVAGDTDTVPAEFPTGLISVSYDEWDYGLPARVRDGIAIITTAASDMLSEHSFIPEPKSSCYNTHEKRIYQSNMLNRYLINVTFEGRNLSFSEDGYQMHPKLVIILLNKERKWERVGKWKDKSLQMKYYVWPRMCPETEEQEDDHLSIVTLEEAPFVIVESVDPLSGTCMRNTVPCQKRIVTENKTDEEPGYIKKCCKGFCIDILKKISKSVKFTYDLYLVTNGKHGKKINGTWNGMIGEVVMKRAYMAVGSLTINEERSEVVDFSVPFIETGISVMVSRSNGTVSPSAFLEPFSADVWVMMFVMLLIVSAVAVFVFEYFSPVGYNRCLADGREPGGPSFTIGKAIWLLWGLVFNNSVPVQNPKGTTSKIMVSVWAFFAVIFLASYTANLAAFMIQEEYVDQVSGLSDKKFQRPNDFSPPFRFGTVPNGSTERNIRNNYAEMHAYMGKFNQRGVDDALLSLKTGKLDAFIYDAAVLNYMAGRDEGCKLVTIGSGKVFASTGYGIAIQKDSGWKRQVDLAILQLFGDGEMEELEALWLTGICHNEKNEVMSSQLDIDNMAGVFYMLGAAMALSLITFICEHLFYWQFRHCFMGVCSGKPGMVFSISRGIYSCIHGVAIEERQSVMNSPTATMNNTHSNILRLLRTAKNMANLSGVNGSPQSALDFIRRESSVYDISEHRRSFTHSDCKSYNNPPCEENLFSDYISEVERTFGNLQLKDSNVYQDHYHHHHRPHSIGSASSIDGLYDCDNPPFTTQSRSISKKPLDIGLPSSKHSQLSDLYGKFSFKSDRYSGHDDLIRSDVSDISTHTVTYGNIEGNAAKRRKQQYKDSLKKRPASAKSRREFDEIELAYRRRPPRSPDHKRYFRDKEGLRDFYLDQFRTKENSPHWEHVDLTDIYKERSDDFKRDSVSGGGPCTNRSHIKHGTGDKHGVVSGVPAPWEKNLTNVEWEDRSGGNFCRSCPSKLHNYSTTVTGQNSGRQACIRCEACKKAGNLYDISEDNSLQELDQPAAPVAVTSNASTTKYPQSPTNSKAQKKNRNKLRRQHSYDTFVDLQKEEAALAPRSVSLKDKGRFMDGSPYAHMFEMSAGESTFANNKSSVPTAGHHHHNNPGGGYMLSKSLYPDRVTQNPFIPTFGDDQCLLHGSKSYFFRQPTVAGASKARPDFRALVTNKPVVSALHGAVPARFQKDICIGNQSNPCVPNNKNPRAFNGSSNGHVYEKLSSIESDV
outcome measure: pIC50
// pIC50 is dimensionless: -log10 of concentration (M)

Guide cases for pIC50, answers given:
CCOC(=O)C1CCc2nc3cc(-c4ccc(F)cc4)ccc3c(N)c2C1 (centres unmarked)	4.80
CNC(=O)C1CCc2nc3cc(-c4cnn(C)c4)ccc3c(N)c2C1 (centres unmarked)	4.47
Nc1c2c(nc3cc(-c4cncnc4)ccc13)CCCC2	4.55
Nc1c2c(nc3cc(-c4cc[nH]n4)ccc13)CCCC2	4.84

// below: pIC50 requested for another molecule
Could you share which pIC50 value was measured for "Cn1cc(-c2ccc3c(N)c4c(nc3c2)CCCC4)cn1" ?
4.82

----------
target: AChE from Electrophorus electricus (electric eel) (Electrophorus electricus, UniProt O42275)
Sequence (O42275 24-633): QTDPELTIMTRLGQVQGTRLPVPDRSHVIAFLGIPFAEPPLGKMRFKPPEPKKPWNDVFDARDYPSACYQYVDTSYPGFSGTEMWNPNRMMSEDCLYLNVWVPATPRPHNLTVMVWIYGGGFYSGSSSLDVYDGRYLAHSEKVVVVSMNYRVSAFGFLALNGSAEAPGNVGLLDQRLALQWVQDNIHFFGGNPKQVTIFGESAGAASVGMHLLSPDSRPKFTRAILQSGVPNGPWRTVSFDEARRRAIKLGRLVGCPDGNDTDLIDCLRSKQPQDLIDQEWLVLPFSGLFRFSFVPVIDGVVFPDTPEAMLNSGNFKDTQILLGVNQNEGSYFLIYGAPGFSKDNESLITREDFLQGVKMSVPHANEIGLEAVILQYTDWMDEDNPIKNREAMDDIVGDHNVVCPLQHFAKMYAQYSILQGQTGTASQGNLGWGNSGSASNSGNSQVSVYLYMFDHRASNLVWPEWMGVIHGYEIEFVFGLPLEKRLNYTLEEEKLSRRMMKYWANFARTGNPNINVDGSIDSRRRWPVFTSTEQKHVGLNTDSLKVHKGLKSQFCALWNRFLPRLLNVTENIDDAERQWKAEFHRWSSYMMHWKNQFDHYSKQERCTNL
outcome measure: pIC50
API: returns pIC50 as number; meaning -log10 of concentration in mol/L.

Completed entries (count: 4):
Nc1c2c(nc3cc(-c4cncnc4)ccc13)CCCC2	7.73
CNC(=O)C1CCc2nc3cc(-c4cnn(C)c4)ccc3c(N)c2C1 (centres unmarked)	6.88
CSc1ccc(-c2ccc3c(N)c4c(nc3c2)CCCC4)cc1	6.83
N#Cc1ccc(-c2ccc3c(N)c4c(nc3c2)CCCC4)cc1	7.07

I have this compound here, "Nc1c2c(nc3cc(-c4cccnc4)ccc13)CCCC2" , and I need its recorded pIC50.
7.31

----------
biological target: BChE from equine serum (Equus caballus); test: biochemical
Sequence (P81908 whole entry): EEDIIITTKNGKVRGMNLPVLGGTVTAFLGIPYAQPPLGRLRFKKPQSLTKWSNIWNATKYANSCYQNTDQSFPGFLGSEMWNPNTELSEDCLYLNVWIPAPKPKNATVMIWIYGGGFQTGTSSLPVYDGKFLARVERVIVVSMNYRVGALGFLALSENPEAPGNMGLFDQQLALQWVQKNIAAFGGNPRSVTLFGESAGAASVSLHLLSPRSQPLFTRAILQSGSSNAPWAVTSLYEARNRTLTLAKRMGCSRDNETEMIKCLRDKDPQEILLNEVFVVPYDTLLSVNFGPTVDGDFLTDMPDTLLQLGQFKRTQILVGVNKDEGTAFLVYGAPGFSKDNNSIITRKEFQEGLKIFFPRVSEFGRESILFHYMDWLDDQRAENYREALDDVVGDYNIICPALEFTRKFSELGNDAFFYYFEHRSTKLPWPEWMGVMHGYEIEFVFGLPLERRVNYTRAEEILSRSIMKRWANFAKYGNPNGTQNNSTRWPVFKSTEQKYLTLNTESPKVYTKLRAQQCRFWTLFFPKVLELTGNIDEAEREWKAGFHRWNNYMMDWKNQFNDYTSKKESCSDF
This listing pairs molecules with measured pIC50.
Would you please state pIC50, meaning minus log10 of the concentration in mol/L, as a bare number?

Before answering, review these 4 worked examples.
CCOC(=O)C1CCc2nc3cc(-c4ccc(F)cc4)ccc3c(N)c2C1 (centres unmarked)	5.87
Nc1c2c(nc3cc(-c4cncnc4)ccc13)CCCC2	5.82
CCOC(=O)C1CCc2nc3cc(-c4cnn(C)c4)ccc3c(N)c2C1 (centres unmarked)	5.36
N#Cc1ccc(-c2ccc3c(N)c4c(nc3c2)CCCC4)cc1	6.15

Need pIC50 of "CSc1ccc(-c2ccc3c(N)c4c(nc3c2)CCCC4)cc1" , thanks.
6.03

I'd like to know its pIC50. The molecule in question is CNC(=O)C1CCc2nc3cc(-c4cnn(C)c4)ccc3c(N)c2C1 (centres unmarked)
4.79

I am curious: what pIC50 value has been reported for "Nc1c2c(nc3cc(-c4ccc(C(F)(F)F)cc4)ccc13)CCCC2" ?
5.40

Fill blank: measured pIC50 of the molecule "Nc1c2c(nc3cc(-c4ccc(F)cc4)ccc13)CCCC2" is ____.
5.99

// pIC50 lookup, key: CCOC(=O)C1CCc2nc3ccccc3c(N)c2C1 (centres unmarked)
5.42

What value of pIC50 has been recorded for this entry: CCOC(=O)C1CCc2nc3cc(Br)ccc3c(N)c2C1 (centres unmarked)
5.13

// query pIC50 value for entry "Nc1c2c(nc3cc(-c4ccccc4F)ccc13)CCCC2"
6.89

Can you share its pIC50? I mean this molecule: "Nc1c2c(nc3cc(-c4cccnc4)ccc13)CCCC2"
6.09

Given the entry "Nc1c2c(nc3cc(-c4ccoc4)ccc13)CCCC2" , report its measured pIC50.
6.00

GET /values?readout=pIC50&item= "Nc1c2c(nc3cc(-c4ccc(OC(F)(F)F)cc4)ccc13)CCCC2"
5.92

Recorded pIC50 for "Cn1cc(-c2ccc3c(N)c4c(nc3c2)CCCC4)cn1" , please?
6.07

Query (molecule): "Nc1c2c(nc3cc(-c4cc[nH]n4)ccc13)CCCC2" ; field requested: pIC50
6.02

Can you share its pIC50? I mean this molecule: NNC(=O)C1CCc2nc3cc(Br)ccc3c(N)c2C1 (centres unmarked)
4.69

----------
// AChE from Electrophorus electricus (electric eel) (Electrophorus electricus) IC50 records
The reply should be a number in nM, with the unit left off.

Nc1c2c(nc3cc(-c4ccoc4)ccc13)CCCC2	53.6
CCOC(=O)C1CCc2nc3ccccc3c(N)c2C1 (stereo not shown)	42.2
NNC(=O)C1CCc2nc3ccccc3c(N)c2C1 (stereo not shown)	19.3

Now turn to the next compound.
Dear colleague, I am looking for the recorded IC50 of the following compound: "Nc1c2c(nc3cc(-c4ccccc4F)ccc13)CCCC2"
75.1
